- MEASUREMENT_DESCRIPTION: Disposition and mass balance of 14C-vernakalant hydrochloride after single IV and oral doses in CYP2D6 EMs and PMs
- Type: in vivo, human
- CONDITION_DETAILS: IV infusion of 14C-vernakalant; EMs (n = 5)
TEST_READOUT: Cumulative Amount Excreted in Urine During the 7 Days After Administration (mg)
# number only, unit mg dropped from output

Examples with their reported Cumulative Amount Excreted in Urine During the 7 Days After Administration follow.
- MOLECULE: "COc1cc(CCO[C@@H]2CCCC[C@H]2N2CC[C@@H](O)C2)ccc1OC1OC(C(=O)O)C(O)C(O)C1O (stereo partly shown) [Compound 2 glucuronide]"
  NUMERIC_RESULT: 120.01
- MOLECULE: "COc1cc(CCO[C@@H]2CCCC[C@H]2N2CC[C@@H](O)C2)ccc1O [Compound 2]"
  NUMERIC_RESULT: 3.11
- MOLECULE: "COc1ccc(CCO[C@@H]2CCCC[C@H]2N2CC[C@@H](O)C2)cc1O [Compound 3]"
  NUMERIC_RESULT: 0.04

# context switch: different molecule, same Cumulative Amount Excreted in Urine During the 7 Days After Administration
Answer with the recorded Cumulative Amount Excreted in Urine During the 7 Days After Administration of COc1ccc(CCO[C@@H]2CCCC[C@H]2N2CC[C@@H](O[C@@H]3O[C@H](C(=O)O)[C@@H](O)[C@H](O)[C@H]3O)C2)cc1OC [Vernakalant glucuronide] only.
8.91

----------
- MEASUREMENT_DESCRIPTION: Disposition and mass balance of 14C-vernakalant hydrochloride after single IV and oral doses in CYP2D6 EMs and PMs
- Type: in vivo, human
- CONDITION_DETAILS: plasma; IV infusion, single 240-mg dose; PMs (n = 2)
TEST_READOUT: Cmax (ng/mL)
# number only, unit ng/mL dropped from output

- MOLECULE: "COc1cc(CCO[C@@H]2CCCC[C@H]2N2CC[C@@H](O)C2)ccc1O"
  NUMERIC_RESULT: 3.31

Answer with the recorded Cmax of COc1cc(CCO[C@@H]2CCCC[C@H]2N2CC[C@@H](O)C2)ccc1OC1OC(C(=O)O)C(O)C(O)C1O (stereo partly shown) [Compound 2 glucuronide] only.
180.5

Answer with the recorded Cmax of "COc1ccc(CCO[C@@H]2CCCC[C@H]2N2CC[C@@H](O)C2)cc1O" only.
3.72

Answer with the recorded Cmax of COc1ccc(CCO[C@@H]2CCCC[C@H]2N2CC[C@@H](O[C@@H]3O[C@H](C(=O)O)[C@@H](O)[C@H](O)[C@H]3O)C2)cc1OC [Vernakalant glucuronide] only.
942.0

----------
- MEASUREMENT_DESCRIPTION: Disposition and mass balance of 14C-vernakalant hydrochloride after single IV and oral doses in CYP2D6 EMs and PMs
- Type: in vivo, human
- CONDITION_DETAILS: oral administration of 14C-vernakalant; EMs (n = 5)
# key: entry, value: Cumulative Amount Excreted in Urine During the 7 Days After Administration
# number only, unit mg dropped from output

- COMPOUND: "COc1ccc(CCO[C@@H]2CCCC[C@H]2N2CC[C@@H](O[C@@H]3O[C@H](C(=O)O)[C@@H](O)[C@H](O)[C@H]3O)C2)cc1OC [Vernakalant glucuronide]"
  NUMERIC_RESULT: 11.31

Answer with the recorded Cumulative Amount Excreted in Urine During the 7 Days After Administration of COc1cc(CCO[C@@H]2CCCC[C@H]2N2CC[C@@H](O)C2)ccc1OC1OC(C(=O)O)C(O)C(O)C1O (stereo partly shown) [Compound 2 glucuronide] only.
121.76

Answer with the recorded Cumulative Amount Excreted in Urine During the 7 Days After Administration of COc1cc(CCO[C@@H]2CCCC[C@H]2N2CC[C@@H](O)C2)ccc1O [Compound 2] only.
3.88

Answer with the recorded Cumulative Amount Excreted in Urine During the 7 Days After Administration of COc1ccc(CCO[C@@H]2CCCC[C@H]2N2CC[C@@H](O)C2)cc1O [Compound 3] only.
0.05

----------
- MEASUREMENT_DESCRIPTION: Disposition and mass balance of 14C-vernakalant hydrochloride after single IV and oral doses in CYP2D6 EMs and PMs
- Format: in vivo, human
- CONDITION_DETAILS: oral administration of 14C-vernakalant; PMs (n = 2)
TEST_READOUT: Cumulative Amount Excreted in Urine During the 7 Days After Administration (mg)
# number only, unit mg dropped from output

Examples with their reported Cumulative Amount Excreted in Urine During the 7 Days After Administration follow.
- MOLECULE: "COc1ccc(CCO[C@@H]2CCCC[C@H]2N2CC[C@@H](O)C2)cc1O [Compound 3]"
  UNIT_OF_MEASURE: "mg"
  NUMERIC_RESULT: 0.12
- MOLECULE: "COc1cc(CCO[C@@H]2CCCC[C@H]2N2CC[C@@H](O)C2)ccc1O [Compound 2]"
  UNIT_OF_MEASURE: "mg"
  NUMERIC_RESULT: 0.62

Answer with the recorded Cumulative Amount Excreted in Urine During the 7 Days After Administration of COc1cc(CCO[C@@H]2CCCC[C@H]2N2CC[C@@H](O)C2)ccc1OC1OC(C(=O)O)C(O)C(O)C1O (stereo partly shown) [Compound 2 glucuronide] only.
12.03

Answer with the recorded Cumulative Amount Excreted in Urine During the 7 Days After Administration of COc1ccc(CCO[C@@H]2CCCC[C@H]2N2CC[C@@H](O[C@@H]3O[C@H](C(=O)O)[C@@H](O)[C@H](O)[C@H]3O)C2)cc1OC [Vernakalant glucuronide] only.
50.20
